Hello, the source for this data is patent US20230012273A1, in case you need it.

Provide the reported pKd of each item.
Target: T1, cynoSIRPα (XP_015313155), Extracellular Domain + His-Tag (cynomolgus monkey)
T1 construct: also called CySIRPα XP_015313155; not shown: His-Tag
T1 chain: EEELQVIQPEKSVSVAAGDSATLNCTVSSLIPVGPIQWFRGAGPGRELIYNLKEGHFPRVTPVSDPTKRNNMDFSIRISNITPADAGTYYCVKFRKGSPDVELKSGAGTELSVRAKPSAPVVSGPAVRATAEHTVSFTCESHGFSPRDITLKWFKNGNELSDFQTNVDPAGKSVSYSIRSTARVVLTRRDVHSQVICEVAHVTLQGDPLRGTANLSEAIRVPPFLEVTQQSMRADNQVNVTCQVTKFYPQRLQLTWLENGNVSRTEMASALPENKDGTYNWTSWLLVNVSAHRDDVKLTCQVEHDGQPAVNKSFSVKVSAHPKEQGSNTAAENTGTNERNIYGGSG
Assay: SPR, antibody captured on Protein A/G, ECD-His analyte, 1:1 fit
// field semantics: pKd = negative decimal log of concentration (mol/L)

The binder identified as Antibody E5 (antibody, human IgG1, kappa, L234A L235A, V domains shown) VH: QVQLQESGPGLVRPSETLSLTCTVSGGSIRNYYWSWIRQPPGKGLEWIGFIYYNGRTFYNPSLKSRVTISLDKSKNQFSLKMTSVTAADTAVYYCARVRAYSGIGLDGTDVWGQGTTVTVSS VL: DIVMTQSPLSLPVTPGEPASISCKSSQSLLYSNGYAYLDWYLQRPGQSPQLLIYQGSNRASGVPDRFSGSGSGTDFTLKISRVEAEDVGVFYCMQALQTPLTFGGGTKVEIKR registered its pKd at 7.42

The binder identified as Antibody E10 (antibody, human IgG1, kappa, L234A L235A, V domains shown) VH: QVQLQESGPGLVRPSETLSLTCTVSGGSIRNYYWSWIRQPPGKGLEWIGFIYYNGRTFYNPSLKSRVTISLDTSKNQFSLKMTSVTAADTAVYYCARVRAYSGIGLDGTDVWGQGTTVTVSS VL: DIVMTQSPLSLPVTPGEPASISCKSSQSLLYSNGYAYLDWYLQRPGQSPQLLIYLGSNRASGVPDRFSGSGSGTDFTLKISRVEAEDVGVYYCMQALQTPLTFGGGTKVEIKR registered its pKd at 7.63

The binder identified as Antibody E15 (antibody, human IgG1, kappa, L234A L235A, V domains shown) VH: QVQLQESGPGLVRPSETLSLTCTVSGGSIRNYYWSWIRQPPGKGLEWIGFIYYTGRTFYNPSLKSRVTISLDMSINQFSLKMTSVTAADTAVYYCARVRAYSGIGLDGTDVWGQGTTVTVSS VL: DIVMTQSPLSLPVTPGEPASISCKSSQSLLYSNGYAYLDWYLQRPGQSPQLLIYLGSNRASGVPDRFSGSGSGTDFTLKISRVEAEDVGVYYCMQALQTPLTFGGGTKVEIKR registered its pKd at 7.34

The binder identified as Antibody E7 (antibody, human IgG1, kappa, L234A L235A, V domains shown) VH: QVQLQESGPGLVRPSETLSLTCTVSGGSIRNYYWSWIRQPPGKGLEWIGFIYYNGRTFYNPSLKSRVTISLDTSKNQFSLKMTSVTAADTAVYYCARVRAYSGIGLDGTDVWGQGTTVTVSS VL: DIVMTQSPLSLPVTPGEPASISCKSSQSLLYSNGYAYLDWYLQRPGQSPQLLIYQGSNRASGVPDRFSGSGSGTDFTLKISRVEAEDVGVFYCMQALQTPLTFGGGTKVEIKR registered its pKd at 7.67

The binder identified as Antibody E3 (antibody, human IgG1, kappa, L234A L235A, V domains shown) VH: QVQLQESGPGLVRPSETLSLTCTVSGGSIRNYYWSWIRQPPGKGLEWIGFIYYNGRTFYNPSLKSRVTISLDMSKNQFSLKMTSVTAADTAVYYCARVRAYSGIGLDGTDVWGQGTTVTVSS VL: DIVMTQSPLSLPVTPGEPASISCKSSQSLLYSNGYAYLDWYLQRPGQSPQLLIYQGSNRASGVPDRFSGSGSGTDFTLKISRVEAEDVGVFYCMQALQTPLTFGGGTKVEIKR registered its pKd at 7.77

The binder identified as Antibody E8 (antibody, human IgG1, kappa, L234A L235A, V domains shown) VH: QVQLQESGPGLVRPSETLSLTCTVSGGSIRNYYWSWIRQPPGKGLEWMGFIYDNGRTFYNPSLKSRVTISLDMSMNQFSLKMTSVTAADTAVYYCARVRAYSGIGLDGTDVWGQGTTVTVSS VL: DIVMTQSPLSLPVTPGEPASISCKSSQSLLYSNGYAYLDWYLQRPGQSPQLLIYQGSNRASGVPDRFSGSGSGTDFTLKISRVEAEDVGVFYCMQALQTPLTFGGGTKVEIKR registered its pKd at 7.78

The binder identified as Antibody E16 (antibody, human IgG1, kappa, L234A L235A, V domains shown) VH: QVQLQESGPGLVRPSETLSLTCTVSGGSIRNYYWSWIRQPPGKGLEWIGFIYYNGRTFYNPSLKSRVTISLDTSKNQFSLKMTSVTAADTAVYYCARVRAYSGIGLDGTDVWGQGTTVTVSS VL: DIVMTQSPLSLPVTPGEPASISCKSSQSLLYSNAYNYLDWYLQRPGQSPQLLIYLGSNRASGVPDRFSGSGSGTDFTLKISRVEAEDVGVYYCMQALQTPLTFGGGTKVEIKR registered its pKd at 7.31

The binder identified as Antibody E20 (antibody, human IgG1, kappa, L234A L235A, V domains shown) VH: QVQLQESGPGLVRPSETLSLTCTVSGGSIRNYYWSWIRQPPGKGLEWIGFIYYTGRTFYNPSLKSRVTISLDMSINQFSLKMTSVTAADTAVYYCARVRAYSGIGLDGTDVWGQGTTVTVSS VL: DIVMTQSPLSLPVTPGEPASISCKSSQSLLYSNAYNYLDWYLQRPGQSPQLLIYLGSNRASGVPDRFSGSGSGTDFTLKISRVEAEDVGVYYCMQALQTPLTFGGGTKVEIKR registered its pKd at 6.98
